Recorded values, source ChEMBL document CHEMBL1121788.

Species on record: Mus musculus
Assay: Analgesic activity in mice by the acetic acid writhing assay
Format: functional
MEASURE NAME: log10 ED50 (log10 of the value in µmol/kg)
Values below are the log10 of the recorded ED50, with µmol/kg as the unit.

Example results:
compound="C=CCN1CCCC(C(=O)OCC)(c2ccc(O)cc2)C1.Cl (centres undefined)" quantitative_result=1.02
compound="CCCN1CCCC(C(=O)OCC)(c2cccc(O)c2)C1.O=P(O)(O)O (centres undefined)" quantitative_result=0.75
compound=CN1CC[C@]23c4c5ccc(O)c4O[C@H]2[C@@H](O)C=C[C@H]3[C@H]1C5 quantitative_result=-0.14

Need log10 ED50 for each of these compounds.
1. CCCN1CCCC(C(=O)OCC)(c2ccc(O)cc2)C1.Cl (centres undefined)
2. C=CCN1CCCC(C(=O)OCC)(c2cccc(O)c2)C1.O=P(O)(O)O (centres undefined)

A.
[1.80, 0.86]

Need log10 ED50 for each of these compounds.
1. Br.CCOC(=O)C1(c2ccc(O)cc2)CCCN(C)C1 (centres undefined)
2. Br.CCOC(=O)C1(c2cccc(O)c2)CCCN(CC2CC2)C1 (centres undefined)
3. CCOC(=O)C1(c2ccc(O)cc2)CCCN(CC2CC2)C1.Cl (centres undefined)
4. Br.CCOC(=O)C1(c2cccc(O)c2)CCCN(C)C1 (centres undefined)

A.
1.36
0.60
0.67
0.75
